Reference source: PubChem BioAssay (NCI)

Tested on: K-562 leukemia
Assay: NCI-60 one-dose screen, 48 h
Settings: 10 µM unless noted
Compounds without any hit were thinned out: in the full panel of roughly 83,000, 20% have a hit. The source made the active and inactive calls. How the source made its calls: active means growth percent below 10; inactive means the rest.
Classes to choose from: active, inactive

Lookup: Can you look up the reported call for C#CCn1c2c(c3ccccc31)C[C@]1(C)[C@H]3CC[C@@H]4[C@@H]5C(=CCC[C@H]5C(=C)C)CC[C@@]4(C)[C@]3(C)CC[C@H]1C2(C)C for me?
Found: inactive

Lookup: Can you look up the reported call for Cn1cc(-c2nc(-c3c[nH]c4ncccc34)cs2)c2cc(F)ccc21 for me?
Found: active

Lookup: Can you look up the reported call for COc1cnc2c(c1)C(=O)c1c-2n(CCCNCCN2CCOCC2)c(=O)c2cc([N+](=O)[O-])ccc12 for me?
Found: active

Lookup: Can you look up the reported call for Cc1ccncc1C(=O)O for me?
Found: inactive

Lookup: Can you look up the reported call for COc1ccc2c(c1)C/C(=C\c1cc(-c3cc(OC)c(OC)c(OC)c3)n[nH]1)C2=O for me?
Found: inactive

Lookup: Can you look up the reported call for COC(=O)c1cc(=O)nc(N/N=C/c2ccc(C)cc2)s1 for me?
Found: inactive

Lookup: Can you look up the reported call for O=C1c2ccccc2C(=Cc2ccccc2)c2ccccc21 for me?
Found: active

Lookup: Can you look up the reported call for COc1ccc(-c2nc3c(c(C)nn3-c3ccc(F)cc3)c(=O)[nH]2)cc1 for me?
Found: inactive

Lookup: Can you look up the reported call for OCCNc1nc(Nc2ccc(Cl)c(Cl)c2)nc2ccccc12 for me?
Found: active

Lookup: Can you look up the reported call for Cc1cccc(C)c1NC(=O)CSC(=S)N1CCCCC1 for me?
Found: inactive

Lookup: Can you look up the reported call for COc1ccc(-c2n[nH]nc2-c2cc3ccccc3s2)cc1O for me?
Found: active

Lookup: Can you look up the reported call for COc1cc(/C=C/c2cc(/C=C/c3ccc(O)c(OC)c3)n(-c3ccc(Cl)cc3)c(=O)n2)ccc1O for me?
Found: inactive

Lookup: Can you look up the reported call for CCCCCCCN(CCCCCCC)C(=N)c1ccnc2ccccc12 for me?
Found: active

Lookup: Can you look up the reported call for COc1ccc(OC)c(-c2c(C#N)c(-c3ccco3)nc3c2c(-c2ccccc2)nn3-c2ccccc2)c1 for me?
Found: inactive

Lookup: Can you look up the reported call for Cn1c(=O)c2c(nc(Br)n2CC(=O)Nc2ccc(F)cc2)n(C)c1=O for me?
Found: inactive

Lookup: Can you look up the reported call for NCCn1cc(-c2nc(-c3c[nH]c4ncccc34)cs2)c2cc(F)ccc21 for me?
Found: inactive

Lookup: Can you look up the reported call for N#Cc1c(-c2ccco2)nc2c(c(-c3ccccc3)nn2-c2ccccc2)c1-c1ccc(O)cc1 for me?
Found: inactive

Lookup: Can you look up the reported call for N#C/C(=C\c1ccc(-c2ccc(Br)cc2)o1)c1nc(-c2ccco2)cs1 for me?
Found: inactive

Lookup: Can you look up the reported call for COc1ccc(-c2cc(/C=C/C(=O)c3ccc(OC)c(OC)c3)[nH]n2)cc1 for me?
Found: active

Lookup: Can you look up the reported call for CCN1CCN(C(=O)[C@]23CCC(C)(C)C[C@@H]2C2=CC[C@@H]4[C@@]5(C)C/C(=C/c6ccncc6)C(=O)C(C)(C)[C@@H]5CC[C@@]4(C)[C@]2(C)CC3)CC1 for me?
Found: active
